assay: soluble on expression in E. coli; label from the status in PepcDB or PDB records
readoutName: soluble on expression in E. coli

MGSDKIHHHHHHMRLVQYRMPDGSRRVGRVSDDDNHLHPLDKTGSVLELAEAAIAEDMSIASLVEKRTAAATIDYDALLRNGRVLAPVDHPEPARFLVTGTGLTHTGSAAARNQMHVLTHGDGAEESDSLKIFRMGLEGGKPGAGKIGIQPEWFFKGVGTCVVPPGAPLPMPAFAKAGAEEAEIVGLYLNGPDGHPYRIGYALGNEYSDHVTEGENYLYLAHSKLRSCSIGPELLIGDLPEEVRGHSRILRDGTVIWEQEFLSGEAHMSHSIANLEHFHFRYPMHRRAGDLHAYFFGAAVMSYASGIKTASGDEYEIQAQAFGKPLRNRMVSVPDEGLVTVTPL ... not soluble
MESKNKNGDYVIPDSVKNYDGEPLYILVSLWCKLQEKWISRNDIAEAFGINLRRASFIITYISRRKEKISFRVRYVSYGNLHYKRLEIFIYDVNLEAVPIESPGTTGPKRKTYRVGNGIVGQSNIWNEMIMRRKKES ... not soluble
